Subject of test: T1, RecE606 P658L (Escherichia coli K12, UniProt P15032 606-866, P658L)
T1 sequence: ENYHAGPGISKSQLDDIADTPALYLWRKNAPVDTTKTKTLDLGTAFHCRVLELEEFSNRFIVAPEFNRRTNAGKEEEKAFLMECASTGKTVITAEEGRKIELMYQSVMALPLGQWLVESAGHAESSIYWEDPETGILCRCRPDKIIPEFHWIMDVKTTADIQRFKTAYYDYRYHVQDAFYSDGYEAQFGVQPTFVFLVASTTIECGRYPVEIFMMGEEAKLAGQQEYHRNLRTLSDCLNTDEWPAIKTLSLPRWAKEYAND
Assay info: fluorescence anisotropy
Reported metric: pKd
Numbers only, as −log10 of the molar value.

Problem: Any idea what its pKd is? The binder is F25 (dsDNA) DNA 1: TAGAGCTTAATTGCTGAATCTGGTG DNA 2: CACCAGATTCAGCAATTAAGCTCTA
Solution: 6.96
